- Tested on: alkaline phosphatase, intestinal [Bos taurus]
- measurement protocol: bovine intestinal alkaline phosphatase inhibitors, primary screen, selectivity assay for TNAP inhibitor project, biochemical, bovine IAP, CDP-star luminescence (AID 1019)
- settings: purified bovine IAP, 30 min, at 20 µM, stronger effect = higher value
In all, about 190,000 compounds went through this assay and fewer than 10 were called active. Not all results are given here.
Entries and their inhibition

// worked examples, inhibition included
[ask] Param item = COC(=O)c1ccc(C(=O)OC)c(NC(=S)N2CCN(c3ccc(F)cc3)CC2)c1 ; retrieve measured inhibition.
[reply] -5.9% (inactive)

[ask] Param item = S=C(NC1CCCCC1)NN1CCOCC1 ; retrieve measured inhibition.
[reply] -0.1% (inactive)

[ask] Param item = CCN(CC)C(=O)Oc1ccc(OC(=O)N(CC)CC)cc1 ; retrieve measured inhibition.
[reply] -10.3% (inactive)

[ask] Param item = COc1ccc(OC)c(C2C3=C(N=c4s/c(=C\c5cccc(O)c5)c(=O)n42)c2ccccc2CC3)c1 (stereo not drawn) ; retrieve measured inhibition.
[reply] 0.5% (inactive)

[ask] Param item = Cc1ccc(Cl)cc1NC(=O)COC(=O)CC(C)(C)C ; retrieve measured inhibition.
[reply] -16% (inactive)

[ask] Param item = Cc1c(NC(=O)CSc2nnnn2-c2ccc(C(=O)O)cc2)c(=O)n(-c2ccccc2)n1C ; retrieve measured inhibition.
[reply] 6% (inactive)

[ask] Param item = NS(=O)(=O)c1ccc(CCNC(=O)c2ccc(Cl)cc2[N+](=O)[O-])cc1 ; retrieve measured inhibition.
[reply] -14.5% (inactive)

[ask] Param item = CCC(C)NC(=O)Cn1nc(C(F)(F)F)c2c1CCC2 (stereo not drawn) ; retrieve measured inhibition.
[reply] -10.6% (inactive)

[ask] Param item = CC1CCN(C(=O)c2ccc(S(=O)(=O)Cc3cc(F)ccc3F)c([N+](=O)[O-])c2)CC1 ; retrieve measured inhibition.
[reply] 18.6% (inactive)

[ask] Param item = CC1CC(C)CN(CCC(=O)Nc2ccc3c(c2)CCC3)C1 (stereo not drawn) ; retrieve measured inhibition.
[reply] -14.7% (inactive)

Continuing:
[ask] Param item = O=C(CCc1ccccc1)NCCc1cccs1 ; retrieve measured inhibition.
[reply] 1.2% (inactive)

[ask] Param item = CCOC(=O)N1CCN(C(=O)C2CCN(Cc3ccc(OC)cc3OC)CC2)CC1 ; retrieve measured inhibition.
[reply] 3.5% (inactive)

[ask] Param item = CCOC(=O)c1c(CN(C)C)n(-c2ccccc2)c2cc(Br)c(O)cc12 ; retrieve measured inhibition.
[reply] -6.7% (inactive)

[ask] Param item = O=C(NCCc1ccccc1)C1CCN(S(=O)(=O)c2ccc(Br)s2)CC1 ; retrieve measured inhibition.
[reply] 2.9% (inactive)

[ask] Param item = COc1ccccc1NC(=O)c1cc(Cl)nnc1Cl ; retrieve measured inhibition.
[reply] -4% (inactive)

[ask] Param item = N/C(Cc1ccc([N+](=O)[O-])cc1)=N\OC(=O)C1CCCCC1 ; retrieve measured inhibition.
[reply] -0.5% (inactive)

[ask] Param item = C[C@@H]1NC(=O)c2cc([N+](=O)[O-])cc(F)c2NCCC[C@@H](C(N)=O)NC(=O)[C@H](CC(N)=O)NC1=O ; retrieve measured inhibition.
[reply] 38.7% (inactive)

[ask] Param item = O=C(COC(=O)c1ccc(O)cc1)Nc1nccs1 ; retrieve measured inhibition.
[reply] -1.9% (inactive)

[ask] Param item = CC1CN/C(=C\C(=O)c2ccc(Br)cc2)C(=O)N1 (stereo not drawn) ; retrieve measured inhibition.
[reply] 12.9% (inactive)

[ask] Param item = CCN(CC)C(=O)N(CC)Cc1ccccc1 ; retrieve measured inhibition.
[reply] -1.7% (inactive)

[ask] Param item = COc1ccc(/C=N/N=C2/C(=O)Nc3ccccc32)cc1O ; retrieve measured inhibition.
[reply] 5% (inactive)

# credit: PubChem BioAssay AID1019
